- experimentSummary: Quantitative High-Throughput drug screen in 47 multiple myeloma cell lines against the NCATS MIPE library collection: XG6_PLB cell viability assay (AID 1919865); also: nearly all actives have a fitted effect of over 40% in size
- measurementConditions: XG6 myeloma viability, CellTiter-Glo ATP luminescence, 48 h; series mostly up to 45.8 µM
Results filed as inconclusive are left out. The source made the active and inactive calls. Calls follow the shape of the dose curve; as a rule, active = well fitted cell-killing curve with a large enough effect; inconclusive = small, poorly fitted or top-dose-only effect, or effect the other way; inactive = no such curve, though single readings can be large or run the other way.
Form entry, call: pick from label 1 for active, label 0 for inactive

Lookup: Given "CC[C@H](CC#N)OC(=O)N[C@@H](C)c1cccc(NC(=O)Nc2ccc(-c3cnco3)c(OC)c2)c1" , state the outcome it received in this test.
Found: label 1

Lookup: Subsequent entry: "Cc1ccc(NC(=O)Nc2cc(C(F)(F)F)ccc2F)cc1Nc1ccc2c(c1)NC(=O)C2=Cc1ccc[nH]1"
Found: label 1

Lookup: Subsequent entry: CC1=C(CC(=O)O)c2cc(F)ccc2C1=Cc1ccc(S(C)=O)cc1 (configuration not stated)
Found: label 1

Lookup: Subsequent entry: "CC(=O)OCC(=O)[C@@]12OC(C)(C)O[C@H]1C[C@H]1[C@@H]3C[C@H](F)C4=CC(=O)C=C[C@]4(C)[C@@]3(F)[C@@H](O)C[C@@]12C"
Found: label 0

Lookup: Subsequent entry: "NC(=O)c1ncn([C@@H]2O[C@H](CO)[C@@H](O)[C@@H]2O)n1"
Found: label 0

Lookup: Subsequent entry: "CN(C)c1ccc(-c2nc3ncc(Cl)c(N4CCN(CC(=O)Nc5nccs5)CC4)c3[nH]2)cc1"
Found: label 1

Lookup: Subsequent entry: "CCc1cccc(CC)c1NC(=O)N1Cc2[nH]nc(NC(=O)c3ccc(N4CCN(C)CC4)cc3)c2C1"
Found: label 1

Lookup: Subsequent entry: "COc1nc(C)cnc1NS(=O)(=O)c1cccnc1-c1ccc(-c2nnco2)cc1"
Found: label 0

Lookup: Subsequent entry: "Cc1ccccc1-n1c(Cn2nc(-c3cccc(O)c3)c3c(N)ncnc32)nc2cccc(C)c2c1=O"
Found: label 1

Lookup: Subsequent entry: "CC[C@H](C=C[C@@H](C)[C@H]1CC[C@H]2[C@@H]3CC=C4C[C@@H](O)CC[C@]4(C)[C@@H]3CC[C@]12C)C(C)C"
Found: label 1

Lookup: Subsequent entry: "C=CC[N+]1([C@H]2C[C@H]3[C@@H]4CC[C@H]5C[C@H](O)[C@@H](N6CCOCC6)C[C@]5(C)[C@@H]4CC[C@]3(C)[C@H]2OC(C)=O)CCCC1"
Found: label 0

Lookup: Subsequent entry: "C[C@@]1(C(=O)Nc2ccc(F)nc2)CCCN1c1nc(Nc2cc(C3CC3)[nH]n2)c2cccn2n1"
Found: label 1

Lookup: Subsequent entry: "C=CC(=O)Nc1cccc(Sc2nc(Nc3ccc(N4CCN(C)CC4)cc3)ncc2Cl)c1"
Found: label 1

Lookup: Subsequent entry: "O=S(=O)(NCCNCC=Cc1ccc(Br)cc1)c1cccc2cnccc12"
Found: label 1

Lookup: Subsequent entry: COc1cccc(OC)c1-c1cc(C(=O)NC2(C(=O)O)C3CC4CC(C3)CC2C4)nn1-c1ccnc2cc(Cl)ccc12 (configuration not stated)
Found: label 0

Lookup: Subsequent entry: "CCC=CC[C@H]1C(=O)CC[C@@H]1CC(=O)OC"
Found: label 0

Lookup: Subsequent entry: "Cc1cnc(CNC(=O)c2c(=O)c3ccc(N4CCCN(C)CC4)nc3n3c2sc2ccccc23)cn1"
Found: label 1

----------
- experimentSummary: Quantitative High-Throughput drug screen in 47 multiple myeloma cell lines against the NCATS MIPE library collection: ARP1_JJKsccF8 cell viability assay (AID 1918928; also: nearly all actives have a fitted effect of over 40% in size; also: potency is read from the fitted curve at half-maximal effect;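 as to viability: 100% = DMSO only wells and 0% = medium only wells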)
- measurementConditions: ARP1 myeloma cells viability, CellTiter-Glo ATP, 48 h; series mostly up to 45.8 µM
Results filed as inconclusive are left out. The source made the active and inactive calls. The call rests on the fitted dose curve; in most records, active means well fitted cell-killing curve with a large enough effect; inconclusive means small, poorly fitted or top-dose-only effect, or effect the other way; inactive means no such curve, though single readings can be large or run the other way.
valueKind: Potency

Worked cases, answers included:
1) CN1CCN(c2ncc(-c3cc(Cl)cc(Cl)c3Cl)c(N)n2)CC1	inactive
2) O=[N+]([O-])c1ccc(Nc2ccccc2-c2ccccc2)c2nonc12	inactive
3) N#CC1(c2cccc(C(=O)Nc3cc(Oc4ccc5nc(NC(=O)C6CC6)sc5n4)ccc3F)c2Cl)CC1	9.35 µM (active)
4) N=C1SC(=Cc2ccc(-c3ccc4c(c3)C(=O)NC4=O)o2)C(=O)N1c1ccc(Br)cc1	3.32 µM (active)
5) CCN1C[C@H](C)n2c(c(O)c3c(=O)n(Cc4ccc(F)c(Cl)c4)nc(C(=O)NC)c32)C1=O	inactive

Lookup: # get_value(readout='Potency', item= "CC[C@H]1OC(=O)[C@H](C)[C@@H](O[C@H]2C[C@@](C)(OC)[C@@H](O)[C@H](C)O2)[C@H](C)[C@@H](O[C@@H]2O[C@H](C)C[C@H](N(C)C)[C@H]2O)[C@](C)(O)C[C@H](C)C(=NOCOCCOC)[C@H](C)[C@@H](O)[C@]1(C)O" )
Found: inactive

Lookup: Subsequent entry: "Clc1ccc(C2(c3ccc(-c4cn[nH]c4)cc3)CCNCC2)cc1"
Found: 23.5 µM (active)

Lookup: Subsequent entry: "Nc1ncnc2c1ncn2[C@@H]1O[C@H](CO)[C@@H](O)[C@@H]1O"
Found: 23.5 µM (active)

Lookup: Subsequent entry: "COc1ccc2ccc(=O)oc2c1CC=C(C)C"
Found: 8.33 µM (active)

Lookup: Subsequent entry: "O=c1[nH]c(=O)n([C@H]2C[C@@H](O)[C@@H](CO)O2)cc1I"
Found: inactive

Lookup: Subsequent entry: "COc1ccc(-c2cc(=O)c3c(O)cc(O[C@@H]4O[C@H](CO[C@@H]5O[C@@H](C)[C@H](O)[C@@H](O)[C@@H]5O)[C@@H](O)[C@H](O)[C@@H]4O)cc3o2)cc1O"
Found: inactive

Lookup: Subsequent entry: "CO[C@H]1O[C@@H]2O[C@@]3(C)CC[C@@H]4[C@@H](C)CC[C@@H]([C@H]1C)[C@@]24OO3"
Found: 16.6 µM (active)

----------
- experimentSummary: qHTS of pediatric cancer cell lines to identify multiple opportunities for drug repurposing: Primary screen for NB1643 cells (AID 1347099); also: nearly all actives have a fitted effect of over 50% in size
- measurementConditions: NB1643 neuroblastoma viability, CellTiter-Glo luminescence, 48 h; series mostly up to 46 µM
Records with an inconclusive call do not appear. Active and inactive are the calls of the source. The call rests on the fitted dose curve; in most records, active means well fitted cell-killing curve with a large enough effect; inconclusive means small, poorly fitted or top-dose-only effect; inactive means no such curve, though single readings can be large or run the other way.
Form entry, call: pick from active, inactive

Lookup: Given "CC(C)CN(C[C@H](O)[C@H](Cc1ccccc1)NC(=O)O[C@H]1CCOC1)S(=O)(=O)c1ccc(N)cc1" , state the outcome it received in this test.
Found: inactive

Lookup: Subsequent entry: "c1cc(OCCN2CCCCC2)cc(-c2n[nH]c3ccc(-c4ncn[nH]4)cc23)c1"
Found: active

Lookup: Subsequent entry: CC(NCCc1ccc(O)cc1)C(O)c1ccc(O)cc1 (centres undefined)
Found: inactive

Lookup: Subsequent entry: "CC(=O)OCC(=O)[C@@]12OC(C)(C)O[C@H]1C[C@H]1[C@@H]3C[C@H](F)C4=CC(=O)C=C[C@]4(C)[C@@]3(F)[C@@H](O)C[C@@]12C"
Found: inactive

----------
- Tested on: NIH3T3
- experimentSummary: Cytotoxic Profiling of Annotated Libraries Using Quantitative High-Throughput Screening (AID 1296008); also: nearly all actives have a fitted effect of over 60% in size
- measurementConditions: Five cell lines viability, CellTiter-Glo ATP luminescence, 48-72 h
Records with an inconclusive call do not appear. Activity calls are given as the source filed them. Calls follow the shape of the dose curve; as a rule, active = well fitted inhibition curve with a large enough effect; inconclusive = small, poorly fitted or top-dose-only effect; inactive = flat fitted curve, though single readings scatter.
Form entry, call: pick from 1 = active, -1 = inactive

Lookup: Given "O=C1C(c2c(O)[nH]c3ccccc23)=Nc2ccccc21" , state the outcome it received in this test.
Found: -1

Lookup: Subsequent entry: "COc1c(C)cnc(Cn2cnc3c(Cl)nc(N)nc32)c1C"
Found: 1

Lookup: Subsequent entry: "CCCCCCCCCCCCCCCC(=O)O[C@H]1[C@@H](O)[C@@H](O)[C@@H]([C@H](NC(=O)[C@@H]2C[C@@H](CCC)CN2C)[C@H](C)Cl)O[C@@H]1SC"
Found: -1

Lookup: Subsequent entry: "Cc1ccc(NC(=O)Nc2cc(C(F)(F)F)ccc2F)cc1Nc1ccc2c(c1)NC(=O)C2=Cc1ccc[nH]1"
Found: 1

----------
- System: KB-3-1
- experimentSummary: Cytotoxic Profiling of Annotated Libraries Using Quantitative High-Throughput Screening (AID 1296008); also: nearly all actives have a fitted effect of over 60% in size
- measurementConditions: Five cell lines viability, CellTiter-Glo ATP luminescence, 48-72 h
- Method: Cell-based phenotypic screening is a commonly used approach to discover biological pathways, novel drug targets, chemical probes and high-quality hit-to-lead molecules. […] A pintool (Kalypsys) was used to transfer 23 nL of compound solution to the 1536-well assay plates. […] Plates were left at room temperature for 10 min before imaging the ATP-coupled luminescence using a ViewLux microplate imager (PerkinElmer, Waltham, MA).
Inconclusive results are not listed. Active and inactive are the calls of the source. Calls come from the whole dose curve; as a rule, active = well fitted inhibition curve with a large enough effect; inconclusive = small, poorly fitted or top-dose-only effect; inactive = flat fitted curve, though single readings scatter.
Form entry, call: pick from active, inactive

Lookup: Given "Cc1cc(NC(=O)Nc2ccc(N(C)C)cc2)c2cc(F)cc(F)c2n1" , state the outcome it received in this test.
Found: inactive

Lookup: Subsequent entry: "CC(=O)O[C@]1(C(C)=O)CC[C@H]2[C@@H]3C=C(Cl)C4=CC(=O)[C@@H]5C[C@H]5[C@]4(C)[C@@H]3CC[C@@]21C"
Found: inactive

Lookup: Subsequent entry: "Cc1ccc(NC(=O)Nc2cc(C(F)(F)F)ccc2F)cc1Nc1ccc2c(c1)NC(=O)C2=Cc1ccc[nH]1"
Found: active

Lookup: Subsequent entry: "O=C(O)CCNc1cc(N2CCc3ccccc3CC2)nc(-c2ccccn2)n1"
Found: inactive

Lookup: Subsequent entry: "CON(C)C(=O)N1N=C(c2cc(F)ccc2F)S[C@]1(CCCN)c1ccccc1"
Found: active

Lookup: Subsequent entry: "C[C@]12CC[C@@H]3c4ccc(O)cc4CC[C@H]3[C@H]1[C@@H](O)[C@@H](O)[C@H]2O"
Found: inactive

Lookup: Subsequent entry: "CN(C)CCN(C)C(=O)c1ccc(NC(=O)Nc2ccc(-c3nc(N4CCOCC4)c4ccn(CC(F)(F)F)c4n3)cc2)cc1"
Found: active

Lookup: Subsequent entry: "O=C(O)CCC=CCC[C@@H]1[C@H](N2CCCCC2)[C@@H](O)C[C@@H]1OCc1ccc(-c2ccccc2)cc1"
Found: inactive

Lookup: Subsequent entry: "O=C(CO)N1CCC(c2[nH]nc(-c3ccc(Cl)cc3)c2-c2ccncn2)CC1"
Found: inactive
